Target: recombinant human MER (Homo sapiens)
Sequence (Q12866 21-999): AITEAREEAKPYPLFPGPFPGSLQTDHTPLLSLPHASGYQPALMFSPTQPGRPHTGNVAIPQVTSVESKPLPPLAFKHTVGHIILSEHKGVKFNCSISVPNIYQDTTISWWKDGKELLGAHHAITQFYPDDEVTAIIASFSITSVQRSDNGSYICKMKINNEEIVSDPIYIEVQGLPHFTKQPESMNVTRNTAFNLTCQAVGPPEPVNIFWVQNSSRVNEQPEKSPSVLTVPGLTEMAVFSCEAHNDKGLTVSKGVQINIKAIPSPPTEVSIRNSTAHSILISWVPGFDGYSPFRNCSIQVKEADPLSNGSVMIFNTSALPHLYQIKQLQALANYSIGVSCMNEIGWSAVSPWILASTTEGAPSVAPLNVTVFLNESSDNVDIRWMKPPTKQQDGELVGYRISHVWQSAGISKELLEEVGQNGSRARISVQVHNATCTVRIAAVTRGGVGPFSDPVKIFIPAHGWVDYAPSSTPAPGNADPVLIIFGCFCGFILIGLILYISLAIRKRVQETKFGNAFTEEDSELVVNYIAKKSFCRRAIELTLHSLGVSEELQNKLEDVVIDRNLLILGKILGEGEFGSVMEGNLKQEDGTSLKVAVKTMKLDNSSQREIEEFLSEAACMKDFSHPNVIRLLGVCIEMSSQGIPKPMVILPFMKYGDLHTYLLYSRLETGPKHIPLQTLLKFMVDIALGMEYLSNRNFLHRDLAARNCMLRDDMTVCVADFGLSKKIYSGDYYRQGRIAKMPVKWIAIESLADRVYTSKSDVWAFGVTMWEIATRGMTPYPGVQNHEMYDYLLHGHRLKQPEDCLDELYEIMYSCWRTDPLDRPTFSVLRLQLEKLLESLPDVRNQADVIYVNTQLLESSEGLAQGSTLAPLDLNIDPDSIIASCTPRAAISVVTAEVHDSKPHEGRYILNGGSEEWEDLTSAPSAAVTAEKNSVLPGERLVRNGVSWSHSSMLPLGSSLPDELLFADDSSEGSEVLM
Assay: Biochemical potency, HTRF KinEASE-TK kinase assay
Details: 1 nM MER, 700 μM ATP
Entries and their measured IC50 follow.
quantity-measured: IC50

>>> print(df.to_string())
                          chemical_structure  quantity_measured          result
 0  Cc1cncnc1-c1ccc(-c2n[nH]c3ncc(-c4ccc5c(c4)CC[C@@H](N4C6COCC4C6)CC5)cc23)cc1               IC50        < 100 nM
 1  Cc1ncc(C)c(-c2ccc(-c3c[nH]c4ncc(-c5ccc6c(c5)CC[C@@H](N5C7COCC5C7)CC6)cc34)cc2)n1               IC50        < 100 nM
 2  O=C1CCCCN1c1cccnc1-c1ccc(-c2n[nH]c3ncc(-c4ccc5c(c4)CC[C@@H](N4C6COCC4C6)CC5)cc23)cc1               IC50  100 to 1000 nM
 3  O=c1ccccn1-c1ccc(-c2n[nH]c3ncc(-c4ccc5c(c4)CC[C@@H](N4C6COCC4C6)CC5)cc23)cc1               IC50       > 1000 nM
 4  Cc1ccc(C)c(-c2ccc(-c3n[nH]c4ncc(-c5ccc6c(c5)CC[C@@H](N5C7COCC5C7)CC6)cc34)cc2)n1               IC50  100 to 1000 nM
 5  CN(C)C(=O)c1ccccc1-c1ccc(-c2c[nH]c3ncc(-c4ccc5c(c4)CC[C@@H](N4C6COCC4C6)CC5)cc23)cn1               IC50  100 to 1000 nM
 6  COc1cccnc1-c1ccc(-c2n[nH]c3ncc(-c4ccc5c(c4)CC[C@@H](N4C6COCC4C6)CC5)cc23)cc1               IC50  100 to 1000 nM
 7  FC(F)c1cccnc1-c1ccc(-c2n[nH]c3ncc(-c4ccc5c(c4)CC[C@@H](N4C6COCC4C6)CC5)cc23)cc1               IC50  100 to 1000 nM
 8  CC(C)(O)c1ccccc1-c1ccc(-c2n[nH]c3ncc(-c4ccc5c(c4)CC[C@@H](N4C6COCC4C6)CC5)cc23)cn1               IC50  100 to 1000 nM
 9  Cc1nccnc1-c1ccc(-c2c[nH]c3ncc(-c4ccc5c(c4)CC[C@@H](N4C6COCC4C6)CC5)cc23)cc1               IC50  100 to 1000 nM
10  Cc1cccnc1-c1ccc(-c2n[nH]c3ncc(-c4ccc5c(c4)CC[C@@H](N4C6COCC4C6)CC5)cc23)cc1               IC50  100 to 1000 nM
11  Cc1cccnc1-c1ccc(-c2n[nH]c3ncc(-c4ccc5c(c4)CC[C@@H](N4C6COCC4C6)CC5)cc23)nn1               IC50  100 to 1000 nM
12  CCc1cccnc1-c1ccc(-c2c[nH]c3ncc(-c4ccc5c(c4)CC[C@@H](N4C6COCC4C6)CC5)cc23)cc1               IC50  100 to 1000 nM
13  COCCOc1cccnc1-c1ccc(-c2c[nH]c3ncc(-c4ccc5c(c4)CC[C@@H](N4C6COCC4C6)CC5)cc23)cc1               IC50        < 100 nM
14  c1cnc(-c2ccc(-c3c[nH]c4ncc(-c5ccc6c(c5)CC[C@@H](N5C7COCC5C7)CC6)cc34)cc2)c(N2CCOCC2)c1               IC50  100 to 1000 nM
15  c1cc(-n2cc(-c3c[nH]c4ncc(-c5ccc6c(c5)CC[C@@H](N5C7COCC5C7)CC6)cc34)cn2)ccn1               IC50       > 1000 nM
16  c1cncc(-c2ccc(-c3n[nH]c4ncc(-c5ccc6c(c5)CC[C@@H](N5C7COCC5C7)CC6)cc34)cc2)c1               IC50       > 1000 nM
17  Cc1cccnc1-c1ccc(-c2c[nH]c3ncc(-c4ccc5c(c4)CC[C@@H](N4C6COCC4C6)CC5)cc23)nc1               IC50  100 to 1000 nM

Recorded values, source patent US12195482B1.
